B1: minF1; the commonest letter at each place (parent)
chain: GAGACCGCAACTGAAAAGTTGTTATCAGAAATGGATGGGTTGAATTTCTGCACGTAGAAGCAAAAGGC

Variants of: B1
Experiment: fraction ligated after 30 min (ligated reads / total reads); higher = more ligase activity
Settings: with F1*subA RNA substrate (template-directed ligation), 42 °C

- monomerSequence: "GAGACCGCAACTGAAAAGTTGTTATCAGAAATAGATGGGTTCAATTTCTGCACGTAGAAGCAAAAGGC [G33A G42C]"
  fraction ligated: 0.0145
- monomerSequence: "GAGACCGCAACTGAAAAGTTGTTATCAGCAATCGATGGGTTGAATTTCTGCACGTAGAAGCAAAAGGC [A29C G33C]"
  fraction ligated: 0.743
- monomerSequence: "GAGACCGCAACTGAAAAGTTGTTATCTGAAATGGATGGGTTTAATTTCTGCACGTAGAAGCAAAAGGC [A27T G42T]"
  fraction ligated: 0.444
- monomerSequence: "GAGACCGCAACTGAAAAGTTGTTATCCGAAATGGTTGGGTTGAATTTCTGCACGTAGAAGCAAAAGGC [A27C A35T]"
  fraction ligated: 0.176
- monomerSequence: "GAGACCGCAACTGAAAAGTTGTTATCAGAGAAGGATGGGTTGAATTTCTGCACGTAGAAGCAAAAGGC [A30G T32A]"
  fraction ligated: 0.108
- monomerSequence: "GAGACCGCAACTGAAAAGTTGTTATCAGAAAAAGATGGGTTGAATTTCTGCACGTAGAAGCAAAAGGC [T32A G33A]"
  fraction ligated: 0.032
- monomerSequence: "GAGACCGCAACTGAAAAGTTGTTAGCAGAAATGTATGGGTTGAATTTCTGCACGTAGAAGCAAAAGGC [T25G G34T]"
  fraction ligated: 0.0038
- monomerSequence: "GAGACCGCAACTGAAAAGTTGTTATCAGAAAGGGATGGGTTGACTTTCTGCACGTAGAAGCAAAAGGC [T32G A44C]"
  fraction ligated: 0.067
- monomerSequence: "GAGACCGCAACTGAAAAGTTGTTATCGGGAATGGATGGGTTGAATTTCTGCACGTAGAAGCAAAAGGC [A27G A29G]"
  fraction ligated: 0.797
- monomerSequence: "GAGACCGCAACTGAAAAGTTGTTATCATAAATTGATGGGTTGAATTTCTGCACGTAGAAGCAAAAGGC [G28T G33T]"
  fraction ligated: 0.725
- monomerSequence: "GAGACCGCAACTGAAAAGTTGTTATCTGAAATGGATGGGTTGCATTTCTGCACGTAGAAGCAAAAGGC [A27T A43C]"
  fraction ligated: 0.336
- monomerSequence: "GAGACCGCAACTGAAAAGTTGTTGGCAGAAATGGATGGGTTGAATTTCTGCACGTAGAAGCAAAAGGC [A24G T25G]"
  fraction ligated: 0.00212
- monomerSequence: "GAGACCGCAACTGAAAAGTTGTTATCCGAAATGGATGGGTTGACTTTCTGCACGTAGAAGCAAAAGGC [A27C A44C]"
  fraction ligated: 0.244
- monomerSequence: "GAGACCGCAACTGAAAAGTTGTTTTCAGAAATGGTTGGGTTGAATTTCTGCACGTAGAAGCAAAAGGC [A24T A35T]"
  fraction ligated: 0.00183
